# Target Of Assay: T1, human mature TGFβ2 (PeproTech) (Homo sapiens, UniProt P61812)
# T1 construct: Transforming Growth Factor-beta 2, human, mature form (cut from the precursor); also called TGFb2; source: bought: PeproTech
# T1 sequence (P61812 303-414): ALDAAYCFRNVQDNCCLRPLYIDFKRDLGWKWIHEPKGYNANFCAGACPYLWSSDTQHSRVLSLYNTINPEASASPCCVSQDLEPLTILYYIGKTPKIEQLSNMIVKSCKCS
# Test Name: SPR; Biacore T200; antibody captured on a Protein A sensor chip (about 90 RU); mature TGFβ isoform injected, five-fold dilutions 0.008 nM to 5 nM; HBS-EP pH 7.4, 150 mM NaCl; 37 °C; 100 μl/min; 3 min association, 60 min dissociation; one-to-one Langmuir model, global fit
# Settings: both partners purified
Hi! Just check whether Kd is below 8 pM. Below gives rule met, equal or above gives rule not met.

Ask | Find out if reported Kd for humanized 4A11 variant 6 (antibody, V domains shown, as the VH of m7 (h4A11.v2): rbt4A11 CDRs and rabbit Vernier residues grafted on human germline IGHV3-48*01; rbt4A11 CDRs and rabbit Vernier residues (VL positions 2, 4, 36, 43, 58) grafted on human germline IGKV2-24*01; human IgG1; also called h4A11.v6; v6; source: Expi293F, transient, purified (Protein A, SEC)) VH: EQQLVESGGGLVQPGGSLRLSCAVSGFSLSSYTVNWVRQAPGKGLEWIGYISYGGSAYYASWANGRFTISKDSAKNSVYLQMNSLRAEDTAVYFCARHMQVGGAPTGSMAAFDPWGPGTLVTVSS VL: DAVLTQTPLSSPVTLGQPASISCQSSQSVYNNNYLSWFQQRPGQPPRLLIYGASTLTSGVPDRFSGSGAGTDFTLKISRVEAEDVGVYYCAGGYSGSSDKYAFGGGTKVEIK is less than 8 pM
Reply | rule not met

Ask | Find out if reported Kd for humanized 4A11 variant 7 (antibody, V domains shown, rbt4A11 CDRs (Kabat and Chothia) and rabbit Vernier residues (VH positions 2, 24, 37, 48, 49, 67, 71, 78, 91, 105) grafted on human germline IGHV4-59*06; has S19, S79, K81 (Kabat numbering); rbt4A11 CDRs and rabbit Vernier residues (VL positions 2, 4, 36, 43, 58) grafted on human germline IGKV3-20*01; human IgG1; also called h4A11.v7; v7; source: Expi293F, transient, purified (Protein A, SEC)) VH: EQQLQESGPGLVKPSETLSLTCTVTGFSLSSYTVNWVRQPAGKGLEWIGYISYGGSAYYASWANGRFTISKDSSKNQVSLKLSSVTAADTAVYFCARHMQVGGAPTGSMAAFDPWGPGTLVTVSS VL: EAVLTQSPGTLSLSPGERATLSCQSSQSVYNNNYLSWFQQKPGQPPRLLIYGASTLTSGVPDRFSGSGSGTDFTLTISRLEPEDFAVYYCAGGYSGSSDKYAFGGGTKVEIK is less than 8 pM
Reply | rule met

Ask | Find out if reported Kd for humanized 4A11 variant 3 (antibody, V domains shown, as the VH of m12 (h4A11.v7): rbt4A11 CDRs and rabbit Vernier residues grafted on human germline IGHV4-59*06; as the VL of m6 (h4A11.v1): rbt4A11 CDRs and rabbit Vernier residues grafted on human germline IGKV4-1*01; human IgG1; also called h4A11.v3; v3; source: Expi293F, transient, purified (Protein A, SEC)) VH: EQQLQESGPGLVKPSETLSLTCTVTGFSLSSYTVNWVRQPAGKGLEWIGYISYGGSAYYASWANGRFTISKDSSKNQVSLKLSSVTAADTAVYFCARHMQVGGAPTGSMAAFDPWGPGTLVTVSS VL: DAVLTQSPDSLAVSLGERATINCQSSQSVYNNNYLSWFQQKPGQPPKLLIYGASTLTSGVPDRFSGSGSGTDFTLTISSLQAEDVAVYYCAGGYSGSSDKYAFGGGTKVEIK is less than 8 pM
Reply | rule not met

New cases:
Ask | Find out if reported Kd for rabbit monoclonal antibody 4A11 (antibody, V domains shown, VH of rbt4A11; VL of rbt4A11; Parental rabbit antibody; also called rbt4A11) VH: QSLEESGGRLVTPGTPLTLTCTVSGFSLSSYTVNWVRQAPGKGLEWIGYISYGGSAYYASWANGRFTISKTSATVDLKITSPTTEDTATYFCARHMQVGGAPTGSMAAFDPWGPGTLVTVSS VL: AAVLTQTPSPVSAAVGGTVSISCQSSQSVYNNNYLSWFQQKPGQPPKLLIYGASTLTSGVPSRFKGSGSGTQFTLTISDVQCDDAATYYCAGGYSGSSDKYAFGGGTEVVVK is less than 8 pM
Reply | rule met

Ask | Find out if reported Kd for humanized 4A11 variant 1 (antibody, V domains shown, as the VH of m7 (h4A11.v2): rbt4A11 CDRs and rabbit Vernier residues grafted on human germline IGHV3-48*01; rbt4A11 CDRs and rabbit Vernier residues (VL positions 2, 4, 36, 43, 58) grafted on human germline IGKV4-1*01; human IgG1; also called h4A11.v1; v1; source: Expi293F, transient, purified (Protein A, SEC)) VH: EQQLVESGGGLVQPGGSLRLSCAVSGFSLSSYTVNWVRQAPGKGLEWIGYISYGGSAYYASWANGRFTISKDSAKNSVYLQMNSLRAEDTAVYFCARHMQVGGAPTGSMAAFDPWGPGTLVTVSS VL: DAVLTQSPDSLAVSLGERATINCQSSQSVYNNNYLSWFQQKPGQPPKLLIYGASTLTSGVPDRFSGSGSGTDFTLTISSLQAEDVAVYYCAGGYSGSSDKYAFGGGTKVEIK is less than 8 pM
Reply | rule met

Origin of the recorded values: paper PMC8595303
